Biological target: Glycogen synthase kinase-3 (Sus scrofa, UniProt B2LUN4+I6LNT8)
Experiment: Inhibition of porcine brain GSK3alpha/beta using GS1 as substrate
readout: IC50

molecule: COc1cc(O)c(C2CCCCN2)c2oc(-c3ccccc3)cc(=O)c12 (centres undefined)
readout: IC50
reported: > 10 µM

molecule: O=c1cc(-c2ccccc2)oc2c(C3CCCCN3)c(O)cc(O)c12 (racemic)
readout: IC50
reported: > 10 µM

molecule: COc1cc(O)c(C2CCCCN2C)c2oc(-c3ccccc3)cc(=O)c12 (centres undefined)
readout: IC50
reported: > 10 µM

FYI, the data here is from ChEMBL document CHEMBL2029219.
